- targetOrTestSystem: human GCG receptor (human, UniProt P47871 26-477)
- Sequence (P47871 26-477): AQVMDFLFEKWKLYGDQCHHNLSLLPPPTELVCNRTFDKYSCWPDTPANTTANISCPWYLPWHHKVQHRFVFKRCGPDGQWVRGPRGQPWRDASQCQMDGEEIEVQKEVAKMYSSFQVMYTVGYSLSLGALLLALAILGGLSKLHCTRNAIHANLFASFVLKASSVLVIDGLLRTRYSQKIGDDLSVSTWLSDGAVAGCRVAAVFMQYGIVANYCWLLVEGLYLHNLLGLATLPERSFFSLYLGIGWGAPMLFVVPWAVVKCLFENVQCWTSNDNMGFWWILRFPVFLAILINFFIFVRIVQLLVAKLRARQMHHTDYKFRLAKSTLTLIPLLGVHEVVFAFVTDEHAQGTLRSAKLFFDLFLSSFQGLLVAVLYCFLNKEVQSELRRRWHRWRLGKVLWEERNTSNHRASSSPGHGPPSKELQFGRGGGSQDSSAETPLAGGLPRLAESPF
- experimentalProtocol: cell-based or functional assay
Binary classification by cAMP Rel. A (%) against human GCG, human GCG R cells, with 70% as an inclusive lower bound for criterion met; all other cases are criterion not met.

Solved entries (count: 8):
Determine whether measured cAMP Rel. A (%) against human GCG, human GCG R cells meets or exceeds 70% for YXQGTXTSDYSIXLDKKAQXAFIEYLLETGPSSGQPPPS (Aib at 2; αMeF(2F) at 6; αMeL at 13; Lys 17 side chain AEEAc-AEEAc-γGlu-CO(CH2)18COOH; Aib at 20; C-terminal amide (NH2)) [Compound 23]
criterion met

Determine whether measured cAMP Rel. A (%) against human GCG, human GCG R cells meets or exceeds 70% for YXQGTXTSDYSIFLDKKAQXAFIEYLLESXPSSGAPPXS (Aib at 2; αMeF at 6; Lys 17 side chain AEEAc-AEEAc-γGlu-CO(CH2)18COOH; Aib at 20; Aib at 30; Ac3c at 38; C-terminal amide (NH2)) [Compound 29]
criterion met

Determine whether measured cAMP Rel. A (%) against human GCG, human GCG R cells meets or exceeds 70% for YXQGTXTSDYSIFLDKKAQXAFIEYLLETGPSSGAPPPS (Aib at 2; αMeF at 6; Lys 17 side chain AEEAc-AEEAc-γGlu-CO(CH2)18COOH; Aib at 20; C-terminal amide (NH2)) [Compound 13]
criterion met

Determine whether measured cAMP Rel. A (%) against human GCG, human GCG R cells meets or exceeds 70% for YXQGTXTSDYSIFLDKKAQXAFIEYLLETGPSSGAPPPS (Aib at 2; αMeF(2F) at 6; Lys 17 side chain AEEAc-AEEAc-γGlu-CO(CH2)18COOH; Aib at 20; C-terminal amide (NH2)) [Compound 17]
criterion met

Determine whether measured cAMP Rel. A (%) against human GCG, human GCG R cells meets or exceeds 70% for YXQGTXTSDYSIXLDKKAQXAFIEFLLETXPSSGAPPXS (Aib at 2; αMeF at 6; αMeL at 13; Lys 17 side chain AEEAc-AEEAc-γGlu-CO(CH2)18COOH; Aib at 20; Aib at 30; Ac3c at 38; C-terminal amide (NH2)) [Compound 30]
criterion not met

Determine whether measured cAMP Rel. A (%) against human GCG, human GCG R cells meets or exceeds 70% for YXQGTXTSDYSIXLDKKAQXAFIEFLLETRPSSXHPPPS (Aib at 2; αMeF(2F) at 6; αMeL at 13; Lys 17 side chain AEEAc-AEEAc-γGlu-CO(CH2)18COOH; Aib at 20; Aib at 34; C-terminal amide (NH2)) [Compound 39]
criterion not met

Determine whether measured cAMP Rel. A (%) against human GCG, human GCG R cells meets or exceeds 70% for YXQGTXTSDYSIXLDKKAQXAFIEFLLESHPSSXHPPXS (Aib at 2; αMeF(2F) at 6; αMeL at 13; Lys 17 side chain AEEAc-AEEAc-γGlu-CO(CH2)18COOH; Aib at 20; Aib at 34; Ac3c at 38; C-terminal amide (NH2)) [Compound 40]
criterion not met

Determine whether measured cAMP Rel. A (%) against human GCG, human GCG R cells meets or exceeds 70% for YXQGTXTSDYSIFLDKKAQXAFIEFLLETGPSSGAPPPS (Aib at 2; αMeF at 6; Lys 17 side chain AEEAc-AEEAc-γGlu-CO(CH2)18COOH; Aib at 20; C-terminal amide (NH2)) [Compound 12]
criterion not met

New cases:
Determine whether measured cAMP Rel. A (%) against human GCG, human GCG R cells meets or exceeds 70% for YXQGTXTSDYSIXLDKKAQXAFIEYLLESHPSSXHPPXS (Aib at 2; αMeF(2F) at 6; αMeL at 13; Lys 17 side chain AEEAc-AEEAc-γGlu-CO(CH2)18COOH; Aib at 20; Aib at 34; Ac3c at 38; C-terminal amide (NH2)) [Compound 43]
criterion not met

Determine whether measured cAMP Rel. A (%) against human GCG, human GCG R cells meets or exceeds 70% for YXQGTXTSDYSIFLDKKAQXAFIEYLLEXHPSSGAPPPS (Aib at 2; αMeF(2F) at 6; Lys 17 side chain AEEAc-AEEAc-γGlu-CO(CH2)18COOH; Aib at 20; Aib at 29; C-terminal amide (NH2)) [Compound 18]
criterion met

Determine whether measured cAMP Rel. A (%) against human GCG, human GCG R cells meets or exceeds 70% for YXQGTXTSDYSIXLDKKAQXAFIEFLLEGRPSSXHPPPS (Aib at 2; αMeF(2F) at 6; αMeL at 13; Lys 17 side chain AEEAc-AEEAc-γGlu-CO(CH2)18COOH; Aib at 20; Aib at 34; C-terminal amide (NH2)) [Compound 25]
criterion met

Determine whether measured cAMP Rel. A (%) against human GCG, human GCG R cells meets or exceeds 70% for YXQGTXTSDYSIXLDKKAQXAFIEYLLESHPSSGAPPXS (Aib at 2; αMeF at 6; αMeL at 13; Lys 17 side chain AEEAc-AEEAc-γGlu-CO(CH2)18COOH; Aib at 20; Ac3c at 38; C-terminal amide (NH2)) [Compound 3]
criterion not met

Determine whether measured cAMP Rel. A (%) against human GCG, human GCG R cells meets or exceeds 70% for YXQGTXTSDYSIFLDKKAQXAFIEFLLEGGPSSGQPPPS (Aib at 2; αMeF(2F) at 6; Lys 17 side chain AEEAc-AEEAc-γGlu-CO(CH2)18COOH; Aib at 20; C-terminal amide (NH2)) [Compound 21]
criterion met

Determine whether measured cAMP Rel. A (%) against human GCG, human GCG R cells meets or exceeds 70% for YXQGTXTSDYSIFLDKKAQXAFIEYLLEGGPSSGAPPXS (Aib at 2; αMeF(2F) at 6; Lys 17 side chain AEEAc-AEEAc-γGlu-CO(CH2)18COOH; Aib at 20; Ac3c at 38; C-terminal amide (NH2)) [Compound 4]
criterion met

Determine whether measured cAMP Rel. A (%) against human GCG, human GCG R cells meets or exceeds 70% for YXHGTXTSDYSIXLDKKAQXAFIEYLLEXHPSSGQPPPS (Aib at 2; αMeF(2F) at 6; αMeL at 13; Lys 17 side chain AEEAc-AEEAc-γGlu-CO(CH2)18COOH; Aib at 20; Aib at 29; C-terminal amide (NH2)) [Compound 6]
criterion met

Determine whether measured cAMP Rel. A (%) against human GCG, human GCG R cells meets or exceeds 70% for YXQGTXTSDYSIFLDKKAQXAFIEFLLESHPSSGAPPXS (Aib at 2; αMeF(2F) at 6; Lys 17 side chain AEEAc-AEEAc-γGlu-CO(CH2)18COOH; Aib at 20; Ac3c at 38; C-terminal amide (NH2)) [Compound 10]
criterion met
